Documented Cocklebur plant response rating across a set of compounds
- Test system: cocklebur
- assay-explanation: Test B pre/postemergence cocklebur
- Assay type: in vivo, Xanthium strumarium
- condition-label: Postemergence, Rate 500 g/ha; scale of 0 to 10 where 0 is no effect and 10 is complete control
measured-attribute: Cocklebur plant response rating

[[record]]
compound = "CC(C)N(C(=O)n1oc(=O)n(C(C)CCl)c1=O)c1ccc(Cl)cc1 (stereo not drawn)"
observed_value = 2

[[record]]
compound = "CC(C)N(C(=O)n1oc(=O)n(C(C)C#N)c1=O)c1ccc(Cl)cc1 (stereo not drawn)"
observed_value = 0

[[record]]
compound = "CC(C)N(C(=O)n1oc(=O)n(CC2=NOCCC2)c1=O)c1ccccc1"
observed_value = 1

[[record]]
compound = "CC(C)N(C(=O)n1oc(=O)n(CCCC(F)(F)F)c1=O)c1ccc(F)cc1"
observed_value = 0

[[record]]
compound = "CC(C)N(C(=O)n1oc(=O)n(Cc2cnc(Cl)s2)c1=O)c1ccc(F)cc1"
observed_value = 0

[[record]]
compound = "CC(C)N(C(=O)n1oc(=O)[nH]c1=O)c1ccc(F)cc1F"
observed_value = 0


====

Documented Plant response rating, Corn across a set of molecules
- Test system: corn
- assay-explanation: Test B pre/postemergence corn
- Format: in vivo, Zea mays
- condition-label: Preemergence, Rate 500 g/ha; scale of 0 to 10 where 0 is no effect and 10 is complete control
measured-attribute: Plant response rating, Corn

[[record]]
molecule = "CC(=O)NCn1c(=O)on(C(=O)N(c2ccccc2)C(C)C)c1=O [Compound 621]"
study_target = "corn"
measured_attribute = "Plant response rating, Corn"
observed_value = 0

[[record]]
molecule = "Cc1ccccc1-n1c(=O)on(C(=O)N(c2ccc(S(C)(=O)=O)cc2)C(C)C)c1=O [Compound 203]"
study_target = "corn"
measured_attribute = "Plant response rating, Corn"
observed_value = 0

[[record]]
molecule = "C=C(Cn1c(=O)on(C(=O)N(c2ccccc2)C(C)C)c1=O)C(C)(C)C [Compound 648]"
study_target = "corn"
measured_attribute = "Plant response rating, Corn"
observed_value = 0

[[record]]
molecule = "COCCOCn1c(=O)on(C(=O)N(c2ccc(F)cc2)C(C)C)c1=O [Compound 220]"
study_target = "corn"
measured_attribute = "Plant response rating, Corn"
observed_value = 7

[[record]]
molecule = "CC(C)N(C(=O)n1oc(=O)n(C2CC2)c1=O)c1ccccc1 [Compound 243]"
study_target = "corn"
measured_attribute = "Plant response rating, Corn"
observed_value = 9

[[record]]
molecule = "CC(=O)N(C)CCn1c(=O)on(C(=O)N(c2ccc(F)cc2)C(C)C)c1=O [Compound 625]"
study_target = "corn"
measured_attribute = "Plant response rating, Corn"
observed_value = 3


====

- Tested on: corn
- assay-explanation: Test B pre/postemergence corn
- Format: in vivo, Zea mays
- condition-label: Postemergence, Rate 250 g/ha; scale 0 to 10, 0 no effect, 10 complete control
measured-attribute: Corn plant response rating

[[record]]
compound = "CCc1noc(C)c1-n1c(=O)on(C(=O)N(c2ccc(F)cc2)C(C)C)c1=O [Compound 101]"
observed_value = 0

[[record]]
compound = "CC(C)N(C(=O)n1oc(=O)n(-c2cnn(C)c2)c1=O)c1ccc(F)cc1 [Compound 98]"
observed_value = 0

[[record]]
compound = "CCn1c(=O)on(C(=O)N(c2ccc(F)cc2)C(C)C)c1=O [Compound 107]"
observed_value = 5

[[record]]
compound = "Cc1nn(C)c(Cl)c1-n1c(=O)on(C(=O)N(c2ccc(F)cc2)C(C)C)c1=O [Compound 95]"
observed_value = 0

[[record]]
compound = "COc1ccc(N(C(=O)n2oc(=O)n(-c3ccccc3C)c2=O)C(C)C)cc1 [Compound 49]"
observed_value = 0

